Attribute: CC50
- measurementProtocol: Cytotoxicity against African green monkey Vero cells
- Type: cell-based
- testConditions: chlorocebus sabaeus
readoutKind: CC50 (µM)

[[record]]
molecule = "Cc1ccc([C@@H]2C[C@H](O)Cc3ccccc3N2)s1 (relative stereo)"
readoutkind = "CC50"
unitname = "µM"
quantitativereadout = 956

[[record]]
molecule = "O[C@@H]1Cc2cc(OC(F)(F)F)ccc2N[C@H](c2ccoc2)C1 (relative stereo)"
readoutkind = "CC50"
unitname = "µM"
quantitativereadout = 95.4

[[record]]
molecule = "Cc1ccsc1[C@@H]1C[C@H](O)Cc2cc(F)ccc2N1 (relative stereo)"
readoutkind = "CC50"
unitname = "µM"
quantitativereadout = 243


* * *

- measurementProtocol: Cytotoxicity against African green monkey Vero cells
- Assay type: cell-based
- testConditions: chlorocebus sabaeus
readoutKind: log10 CC50 (log10 of the value in µM)

[[record]]
molecule = "Cc1ccsc1[C@@H]1C[C@H]2Cc3ccccc3N1O2 (racemic)"
quantitativereadout = 2.66

[[record]]
molecule = "O[C@@H]1Cc2cc(OC(F)(F)F)ccc2N[C@H](c2cccs2)C1"
quantitativereadout = 1.31

[[record]]
molecule = "Cc1ccc([C@@H]2C[C@H]3Cc4ccccc4N2O3)o1 (racemic)"
quantitativereadout = 2.73

[[record]]
molecule = "Cc1ccc([C@@H]2C[C@H](O)Cc3ccccc3N2)o1 (relative stereo)"
quantitativereadout = 2.57

[[record]]
molecule = "Cc1ccc([C@@H]2C[C@H](O)Cc3cc(OC(F)(F)F)ccc3N2)s1 (relative stereo)"
quantitativereadout = 1.38

[[record]]
molecule = "Cc1ccc([C@@H]2C[C@H]3Cc4cc(F)ccc4N2O3)o1 (racemic)"
quantitativereadout = 3.03

[[record]]
molecule = "c1coc([C@@H]2C[C@H]3Cc4ccccc4N2O3)c1 (racemic)"
quantitativereadout = 3.19

[[record]]
molecule = "Cc1ccsc1[C@@H]1C[C@H]2Cc3cc(F)ccc3N1O2 (racemic)"
quantitativereadout = 2.78

[[record]]
molecule = "O[C@@H]1Cc2cc(OC(F)(F)F)ccc2N[C@H](c2ccco2)C1 (relative stereo)"
quantitativereadout = 2.22

[[record]]
molecule = "Brc1ccc([C@@H]2C[C@H]3Cc4ccccc4N2O3)s1 (racemic)"
quantitativereadout = 3.26

[[record]]
molecule = "FC(F)(F)Oc1ccc2c(c1)C[C@@H]1C[C@@H](c3ccco3)N2O1 (racemic)"
quantitativereadout = 1.97

[[record]]
molecule = "O[C@@H]1Cc2cc(F)ccc2N[C@H](c2ccoc2)C1"
quantitativereadout = 3.02

[[record]]
molecule = "Clc1ccc2c(c1)C[C@@H]1C[C@@H](c3ccco3)N2O1 (racemic)"
quantitativereadout = 2.55

[[record]]
molecule = "O[C@@H]1Cc2cc(Cl)ccc2N[C@H](c2cccs2)C1 (relative stereo)"
quantitativereadout = 2.21

[[record]]
molecule = "O=[N+]([O-])c1ccc([C@@H]2C[C@H]3Cc4cc(OC(F)(F)F)ccc4N2O3)o1 (racemic)"
quantitativereadout = 2.33

[[record]]
molecule = "FC(F)(F)Oc1ccc2c(c1)C[C@@H]1C[C@@H](c3ccoc3)N2O1 (racemic)"
quantitativereadout = 2.26

[[record]]
molecule = "Clc1ccc2c(c1)C[C@@H]1C[C@@H](c3ccc(Br)s3)N2O1 (racemic)"
quantitativereadout = 3.22

[[record]]
molecule = "Cc1ccc([C@@H]2C[C@H]3Cc4cc(F)ccc4N2O3)s1 (racemic)"
quantitativereadout = 2.97

[[record]]
molecule = "Cc1ccc([C@@H]2C[C@H]3Cc4cc(Cl)ccc4N2O3)o1 (racemic)"
quantitativereadout = 3.06

[[record]]
molecule = "O[C@@H]1Cc2ccccc2N[C@H](c2cccs2)C1 (relative stereo)"
quantitativereadout = 2.99

[[record]]
molecule = "Cn1cccc1[C@@H]1C[C@H]2Cc3cc(F)ccc3N1O2 (mixture of isomers)"
quantitativereadout = 2.73

[[record]]
molecule = "Cc1ccc([C@@H]2C[C@H]3Cc4cc(OC(F)(F)F)ccc4N2O3)o1 (racemic)"
quantitativereadout = 2.62

[[record]]
molecule = "O[C@@H]1Cc2cc(F)ccc2N[C@H](c2cccs2)C1 (relative stereo)"
quantitativereadout = 2.34

[[record]]
molecule = "Cc1ccc([C@@H]2C[C@H](O)Cc3cc(OC(F)(F)F)ccc3N2)o1 (relative stereo)"
quantitativereadout = 1.91

[[record]]
molecule = "Cc1ccc([C@@H]2C[C@H](O)Cc3cc(F)ccc3N2)s1 (relative stereo)"
quantitativereadout = 2.90

[[record]]
molecule = "CC1CS(=O)(=O)CCN1/N=C/c1ccc([N+](=O)[O-])o1 (configuration not stated) [NIFURTIMOX]"
quantitativereadout = 1.83

[[record]]
molecule = "Cc1ccc([C@@H]2C[C@H](O)Cc3cc(F)ccc3N2)o1 (relative stereo)"
quantitativereadout = 2.92

[[record]]
molecule = "Cc1ccsc1[C@@H]1C[C@H]2Cc3cc(OC(F)(F)F)ccc3N1O2 (racemic)"
quantitativereadout = 1.79

[[record]]
molecule = "Cc1ccsc1[C@@H]1C[C@H]2Cc3cc(Cl)ccc3N1O2 (racemic)"
quantitativereadout = 2.26

[[record]]
molecule = "Cc1ccc([C@@H]2C[C@H]3Cc4ccccc4N2O3)s1 (racemic)"
quantitativereadout = 2.94

[[record]]
molecule = "Cc1ccc([C@@H]2C[C@H]3Cc4cc(OC(F)(F)F)ccc4N2O3)s1 (racemic)"
quantitativereadout = 2.23

[[record]]
molecule = "Cc1ccc([C@@H]2C[C@H](O)Cc3cc(Cl)ccc3N2)o1 (relative stereo)"
quantitativereadout = 2.48


* * *

- Test system: Trypanosoma cruzi
- measurementProtocol: Antiparasitic activity against amastigote stage of Trypanosoma cruzi infected in Vero cells assessed as parasite growth inhibition after 24 hrs by hemocytometery
- Format: functional, organism-based
- testConditions: Trypanosoma cruzi, Vero, 24 h; read-out: IC50
readoutKind: IC50

[[record]]
molecule = "Fc1ccc2c(c1)C[C@@H]1C[C@@H](c3ccoc3)N2O1 (racemic)"
result = "> 408 µM"

[[record]]
molecule = "Cc1ccc([C@@H]2C[C@H](O)Cc3cc(Cl)ccc3N2)s1 (relative stereo)"
result = "> 114 µM"

[[record]]
molecule = "Cc1ccc([C@@H]2C[C@H](O)Cc3ccccc3N2)o1 (relative stereo)"
result = "> 411 µM"

[[record]]
molecule = "Clc1ccc2c(c1)C[C@@H]1C[C@@H](c3cccs3)N2O1 (racemic)"
result = "> 120 µM"


* * *

Attribute: IC50
- Tested on: Trypanosoma cruzi
- measurementProtocol: Antiparasitic activity against amastigote stage of Trypanosoma cruzi infected in Vero cells assessed as parasite growth inhibition after 24 hrs by hemocytometery
- Assay type: functional, organism-based
- testConditions: Trypanosoma cruzi, Vero, 24 h; read-out: IC50
readoutKind: IC50

[[record]]
molecule = "Cc1ccsc1[C@@H]1C[C@H](O)Cc2ccccc2N1 (relative stereo)"
readoutkind = "IC50"
result = "> 128 µM"

[[record]]
molecule = "FC(F)(F)Oc1ccc2c(c1)C[C@@H]1C[C@@H](c3ccoc3)N2O1 (racemic)"
readoutkind = "IC50"
result = "> 107 µM"

[[record]]
molecule = "O=[N+]([O-])c1ccc([C@@H]2C[C@H]3Cc4cc(OC(F)(F)F)ccc4N2O3)o1 (racemic)"
readoutkind = "IC50"
result = "> 281 µM"

[[record]]
molecule = "Cc1ccc([C@@H]2C[C@H]3Cc4ccccc4N2O3)o1 (racemic)"
readoutkind = "IC50"
result = "> 415 µM"

[[record]]
molecule = "O[C@@H]1Cc2ccccc2N[C@H](c2cccs2)C1 (relative stereo)"
readoutkind = "IC50"
result = "> 408 µM"


* * *

Attribute: pIC50
- Test system: Trypanosoma cruzi
- measurementProtocol: Antiparasitic activity against amastigote stage of Trypanosoma cruzi infected in Vero cells assessed as parasite growth inhibition after 24 hrs by hemocytometery
- Type: functional, organism-based
- testConditions: Trypanosoma cruzi, Vero, 24 h; read-out: IC50
pIC50: −log10 of the molar value.
readoutKind: pIC50

[[record]]
compound = "c1csc([C@@H]2C[C@H]3Cc4ccccc4N2O3)c1 (relative stereo)"
readoutkind = "pIC50"
result = "< 3.39"

[[record]]
compound = "Cc1ccc([C@@H]2C[C@H](O)Cc3cc(F)ccc3N2)o1 (relative stereo)"
readoutkind = "pIC50"
result = "< 3.42"

[[record]]
compound = "O[C@@H]1Cc2ccccc2N[C@H](c2ccco2)C1 (relative stereo)"
readoutkind = "pIC50"
result = "< 3.36"

[[record]]
compound = "Cc1ccc([C@@H]2C[C@H]3Cc4cc(F)ccc4N2O3)s1 (racemic)"
readoutkind = "pIC50"
result = "< 3.44"


* * *

- measurementProtocol: Cytotoxicity against African green monkey Vero cells
- Assay type: cell-based
- testConditions: chlorocebus sabaeus
Attribute: CC50
readoutKind: CC50

[[record]]
compound = "FC(F)(F)Oc1ccc2c(c1)C[C@@H]1C[C@@H](c3cccs3)N2O1 (racemic)"
result = "> 306 µM"

[[record]]
compound = "O[C@@H]1Cc2ccccc2N[C@H](c2ccco2)C1 (relative stereo)"
result = "> 1310 µM"

[[record]]
compound = "Clc1ccc2c(c1)C[C@@H]1C[C@@H](c3cccs3)N2O1 (racemic)"
result = "> 361 µM"

[[record]]
compound = "Fc1ccc2c(c1)C[C@@H]1C[C@@H](c3ccoc3)N2O1 (racemic)"
result = "> 1220 µM"

[[record]]
compound = "Fc1ccc2c(c1)C[C@@H]1C[C@@H](c3ccco3)N2O1 (racemic)"
result = "> 408 µM"

